Please respond with reported RP-LC retention time for every item in the list.
# experiment.summary: gradient 5% acetonitrile 3 min, to 50% in 2 min, to 85% in 15 min, held 3 min, 100 µL/min
# protocol.conditions: column: Zorbax Extend-C18 2.1 x 50 mm; eluents: water / acetonitrile, 0.1% formic acid
Note: unit s is implicit; provide only the numeric part.

RP-LC retention time lookup needed for `CCS(=O)(=O)N1CCCc2cc(C(=O)Nc3cc(OC)ccc3OC)ccc21` , thanks.
954

Now consider `CCNc1nc(C)cc(N2CCN(S(=O)(=O)c3cccc(C)c3)CC2)n1` .
708

Now consider `CCOC(=O)c1sc(NC(=O)c2cccs2)nc1C` .
892

Now consider `O=C(c1ccc(Nc2nn3c(=O)c4ccccc4nc3s2)cc1)N1CCN(c2ccccn2)CC1` .
622

Now consider `CCc1nc(OCC(=O)Nc2ccc(C)c(F)c2)c2ccccc2n1` .
872

Now consider CN1C(=O)c2cc(C(=O)NCc3ccc(F)cc3)nn2CC1(C)C(=O)NC1CCCCC1 (centres undefined) .
791

Now consider `COc1cccc(CNC(=O)Nc2ccc3nc(N4CCN(C)CC4)cc(C)c3c2)c1` .
580

Now consider Cc1ccc2c(c1)N(C(=O)CCC(=O)NCCCN1CCN(C3CCCCC3)CC1)CC(C)O2 (centres undefined) .
603

Now consider `CCCn1cc(-c2ccncc2)cc1C(=O)NCc1ccc(F)cc1` .
680

---

Please respond with reported RP-LC retention time for every item in the list.
# experiment.summary: gradient 5% acetonitrile 3 min, to 50% in 2 min, to 85% in 15 min, held 3 min, 100 µL/min
# protocol.conditions: column: Zorbax Extend-C18 2.1 x 50 mm; eluents: water / acetonitrile, 0.1% formic acid
Note: unit s is implicit; provide only the numeric part.

RP-LC retention time lookup needed for `O=C(c1ccc(N2CCOCC2)nn1)N1CCN(c2ncccn2)CC1` , thanks.
586

Now consider `Cc1cc(N2CCN(C)CC2)nc(N2CCN(S(=O)(=O)c3cc(C)c(C)cc3C)CC2)n1` .
598

Now consider COc1ccc(OC)c(NC(=O)C2CCCN2S(=O)(=O)c2cc3c(cc2C)NC(=O)CO3)c1 (stereo not given) .
772

Now consider Nc1cccc(C(=O)CC2(O)C(=O)Nc3ccc(Cl)cc32)c1 (stereo not given) .
627

Now consider O=C(C1CCCO1)N1CCCn2nc(-c3cccs3)cc2C1 (stereo not given) .
689

Now consider Cc1nc(-c2ccccc2)nn1C1CCN(S(=O)(=O)c2cccnc2)C1 (stereo not given) .
716

Now consider Cn1nccc1C(=O)N1CCCC1c1cccc(F)c1 (stereo not given) .
758

Now consider `CCOC(=O)c1c(C)[nH]c(CCC(=O)NCCN2CCCCCC2)c1C` .
621

Now consider `Cc1ccc2[nH]cc(CCNC(=O)CCn3c(=O)c(C)nc4ccccc43)c2c1` .
781

Now consider CCOC(=O)C1C(=O)NC(N2CCN(Cc3ccccc3)CC2)=NC1c1ccco1 (stereo not given) .
578

---

# experiment.summary: gradient 5% acetonitrile 3 min, to 50% in 2 min, to 85% in 15 min, held 3 min, 100 µL/min
# protocol.conditions: column: Zorbax Extend-C18 2.1 x 50 mm; eluents: water / acetonitrile, 0.1% formic acid
property.name: RP-LC retention time (s)
Note: unit s is implicit; provide only the numeric part.

RP-LC retention time lookup needed for CN(C)C(CNC(=O)C1(c2cccs2)CCCC1)c1ccsc1 (centres undefined) , thanks.
596

Now consider `CCOC(=O)c1cccc(NC(=O)C2CCN(S(=O)(=O)c3cn(C)cn3)CC2)c1` .
735

Now consider CSc1cccc(NC(=O)NCC(c2cccnc2)c2c[nH]c3ccccc23)c1 (centres undefined) .
677

Now consider C=CCNC(=O)C1CCCN(C(=O)Nc2ccc(NC(=O)Nc3ccc(C)cc3C)cc2)C1 (centres undefined) .
760

Now consider `CCc1noc(NC(C)=O)c1-c1ccc(C)c(S(=O)(=O)NCc2ccc(C)cc2)c1` .
886

Now consider Cc1ccc(C)c(N2C(=O)CN(S(=O)(=O)c3ccccc3)CC2(C)C(=O)NC2CCCC2)c1 (centres undefined) .
991

Now consider `O=C(c1c[nH]c2ccccc12)N1CCN(c2cc(-c3ccc(Cl)cc3)[nH]n2)CC1` .
811

Now consider `Cc1csc(-c2ccc(N3CCN(C(=O)c4ccc(F)cc4)CC3)nc2)n1` .
820

Now consider `Cc1ccccc1NC(=O)Cn1nc(N2CCSCC2)c2ccccc2c1=O` .
892

---

# experiment.summary: gradient 5% acetonitrile 3 min, to 50% in 2 min, to 85% in 15 min, held 3 min, 100 µL/min
# protocol.conditions: column: Zorbax Extend-C18 2.1 x 50 mm; eluents: water / acetonitrile, 0.1% formic acid
Assign classes using reported RP-LC retention time values and the ranges category 1 (below 700 s), category 2 (700 s to below 900 s), category 3 (900 s or more), please.

Kindly identify the class of `CCCCCNC(=O)C1CCN(c2ccc(Sc3cc(C)ccc3C)nn2)CC1` .
category 3

Now consider Cc1ccc(N2CCN(CC(O)COc3cccc(C)c3)CC2)cc1 (centres undefined) .
category 2

Now consider `O=C(Cn1c(=O)nc(NC2CCCC2)c2ccccc21)Nc1cc(F)cc(F)c1` .
category 2

Now consider `CC(C)Cn1cc(CCNS(=O)(=O)Cc2ccc(Cl)cc2)c2cccnc21` .
category 3

Now consider CCCNC(=O)C1CCCN(c2ccc(SCC(=O)Nc3ccc(OC)cc3)nn2)C1 (centres undefined) .
category 1

Now consider `O=C(Nc1ccc(Cn2cncn2)cc1)c1cccs1` .
category 1

Now consider `O=C(c1ccc(-n2cnnn2)cc1)N1CCN(c2ccccn2)CC1` .
category 1

Now consider O=C(NCC(O)c1ccsc1)Nc1cccc(Cl)c1 (centres undefined) .
category 2

Now consider `COc1ccc(C(=O)Nc2c(-c3ccccc3)nc3ccccn23)c(OC)c1` .
category 1

Now consider `COc1ccccc1CNC(=O)CN1CCN(Cc2ccccc2)C1=O` .
category 2

Now consider O=C(c1ccc(CS(=O)c2cccc(Cl)c2)o1)N1CCN(c2ccccn2)CC1 (centres undefined) .
category 1

Now consider `Cn1c(=O)c(N2CCC(NC(=O)Nc3ccc(Br)cc3)CC2)nc2ccccc21` .
category 3

Now consider `Cc1ccc(-c2noc(Cc3nnc(-c4ccccc4)o3)n2)cc1` .
category 3

Now consider O=C(c1ccco1)N1CCCC1c1nc(C2CCOCC2)no1 (centres undefined) .
category 1

Now consider `O=C(c1ccncn1)N1CC(F)(F)C[C@H]1COc1ccc2c(c1)CCC2` .
category 3

Now consider `CCN1C(=O)c2cc(S(=O)(=O)Nc3ccccc3C)ccc2Oc2cccnc21` .
category 3

Now consider `Cn1c(SCC(=O)Nc2ncn[nH]2)nc2ccsc2c1=O` .
category 1

Now consider COc1ccccc1NC(=O)NC(C(=O)N1CCc2ccccc21)C(C)C (centres undefined) .
category 2

Now consider CCC1Oc2ccc(S(=O)(=O)N3CCC(C(=O)Nc4cccc(Cl)c4C)CC3)cc2NC1=O (centres undefined) .
category 3

Now consider `Cc1nnc(-c2ccc3ccn(CC(=O)Nc4ccc(F)c(F)c4)c3c2)o1` .
category 2

Now consider `CCN1C(=O)COc2ccc(-c3csc(NC(=O)C(C)C)n3)cc21` .
category 2

Now consider `CCOc1ccc(Cc2nc(-c3ccc4oc(C)nc4c3)no2)cc1` .
category 3

Now consider `N#Cc1ccc(N2C=C(C(=O)N3CCCCC3)S(=O)(=O)c3ccc(F)cc32)cc1` .
category 2

Now consider `Cc1ccccc1-c1nc2cnccn2c1NCCC(=O)NCc1ccccc1F` .
category 1

Now consider `CCOc1ccc(S(=O)(=O)Nc2cc(-c3cn4cccc(C)c4n3)ccc2C)cc1` .
category 2

Now consider `COc1c(C(=O)NCc2ccc(C)o2)sc2cc(Cl)ccc12` .
category 3

Now consider Cc1cccc(NC(=O)CN2C(=O)CCc3cc(S(=O)(=O)N4CCCCC4C)ccc32)c1 (centres undefined) .
category 2

Now consider `Cc1cc(C)cc(Oc2nccn3c(=O)n(CC(=O)Nc4cc(F)ccc4F)nc23)c1` .
category 3

Now consider `O=C(Nc1cccc([N+](=O)[O-])c1)N1CCN(c2ccccc2)CC1` .
category 2

Now consider CCCC1c2nccn2CCCN1C(=O)c1occc1C (centres undefined) .
category 1

Now consider `CCOC(=O)c1noc2ncnc(N3CCN(c4ccc(OC)cc4)CC3)c12` .
category 3

Now consider O=C(Nc1ccc2c(c1)N(C(=O)C1CCCO1)CC2)c1c(F)cccc1Cl (centres undefined) .
category 2

Now consider `Cc1cccc2nnc(N3CCN(C(=O)c4cccc(Cl)c4)CC3)n12` .
category 1

---

# experiment.summary: gradient 5% acetonitrile 3 min, to 50% in 2 min, to 85% in 15 min, held 3 min, 100 µL/min
# protocol.conditions: column: Zorbax Extend-C18 2.1 x 50 mm; eluents: water / acetonitrile, 0.1% formic acid
Assign classes using reported RP-LC retention time values and the ranges low value = under 800 s, medium value = from 800 s up to 1000 s, high value = 1000 s and over, please.

Kindly identify the class of `CC(=O)c1cccc(OC(=O)c2cc3c(C)nn(-c4ccccc4)c3s2)c1` .
high value

Now consider CC1Oc2ccc(S(=O)(=O)N3CCC(C(=O)NC4CCCC4)CC3)cc2NC1=O (centres undefined) .
low value

Now consider `CC(C)Oc1ccc(-c2noc(Cn3c(=O)n(-c4ccccc4)c(=O)c4sccc43)n2)cc1` .
high value

Now consider `COC(=O)C1=CN(CC(=O)N2CCN(c3ccc(F)cc3)CC2)S(=O)(=O)N=C1C` .
medium value

Now consider O=C(O)C(Cc1ccccc1)NS(=O)(=O)c1ccc(Cl)c(C(F)(F)F)c1 (centres undefined) .
medium value
